Exercise: state measured Bliss excess for each of the compounds provided.
Tested on: ALL-PO (B-Lymphoblastic Leukemia)
runDescription: Bliss excess, mean over the matrix (fraction); higher = more synergy;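 also: after 72 h of two-drug dosing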
One number for each entry.

As a guide, the following entries are already answered.
INSERT INTO assay_data (compound, assayvalue) VALUES
  ('CC(=O)c1c(C)c2cnc(Nc3ccc(N4CCNCC4)cn3)nc2n(C2CCCC2)c1=O [Palbociclib] + CN(CC[C@H](CSC1=CC=CC=C1)NC2=C(C=C(C=C2)S(=O)(=O)NC(=O)C3=CC=C(C=C3)N4CCC(CC4)[C@H](C5=CC=CC=C5C6=CC=C(C=C6)Cl)O)S(=O)(=O)C(F)(F)F)CCO [AZD4320] (first compound max 10 µM, 7x7, partner max 1 µM)', 0.0126),
  ('COc1nnc2ccc(N3CCC(c4ccc(OCCN5CCN(C)C(=O)[C@H]5C)cc4)CC3)nn12 [AZD5153] + C[C@@H]1COCCN1C2=NC(=NC(=C2)C3(CC3)[S@](=N)(=O)C)C4=C5C=CNC5=NC=C4 [AZD6738] (first compound max 1 µM, 7x7, partner max 10 µM)', 0.0106);

Next, consider the following compound.
Noted for COc1nnc2ccc(N3CCC(c4ccc(OCCN5CCN(C)C(=O)[C@H]5C)cc4)CC3)nn12 [AZD5153] + CN(CC[C@H](CSC1=CC=CC=C1)NC2=C(C=C(C=C2)S(=O)(=O)NC(=O)C3=CC=C(C=C3)N4CCC(CC4)[C@H](C5=CC=CC=C5C6=CC=C(C=C6)Cl)O)S(=O)(=O)C(F)(F)F)CCO [AZD4320] (first compound max 1 µM, 7x7, partner max 1 µM) : its Bliss excess reads 0.0079

* * *

Exercise: state measured Bliss excess for each of the compounds provided.
Tested on: LNZTA3WT4 (Low Grade Glioma)
runDescription: Bliss excess, mean over the matrix (fraction); higher = more synergy
One number for each entry.

As a guide, the following entries are already answered.
INSERT INTO assay_data (compound, endpoint, assayvalue) VALUES
  ('N#Cc1cnc(Nc2cc(NC[C@H]3CNCCO3)c(C(F)(F)F)cn2)cn1 [SRA737] + CCc1c2c(nc3ccc(O)cc13)-c1cc3c(c(=O)n1C2)COC(=O)[C@]3(O)CC [SN-38] (first compound max 10 µM, 7x7, partner max 0.3 µM)', 'Bliss excess', -0.002),
  ('Cn1cnc2c(F)c(Nc3ccc(Br)cc3Cl)c(C(=O)NOCCO)cc21 [Selumetinib] + C[C@@H]1COCCN1C2=NC(=NC(=C2)C3(CC3)[S@](=N)(=O)C)C4=C5C=CNC5=NC=C4 [AZD6738] (first compound max 10 µM, 7x7, partner max 10 µM)', 'Bliss excess', -0.0661),
  ('CC(=O)c1c(C)c2cnc(Nc3ccc(N4CCNCC4)cn3)nc2n(C2CCCC2)c1=O [Palbociclib] + Cc1c2c(nn1C)CSCc1cc(n(C)n1)CSc1cc(c3ccccc3c1)OCCCc1c(C(=O)O)n(C)c3c-2c(Cl)ccc13 [AZD5991] (first compound max 10 µM, 7x7, partner max 1 µM)', 'Bliss excess', 0.0064);

Next, consider the following compound.
Noted for Cc1c2c(nn1C)CSCc1cc(n(C)n1)CSc1cc(c3ccccc3c1)OCCCc1c(C(=O)O)n(C)c3c-2c(Cl)ccc13 [AZD5991] + Nc1ccn([C@@H]2O[C@H](CO)[C@@H](O)C2(F)F)c(=O)n1 [Gemcitabine] (first compound max 1 µM, 7x7, partner max 0.3 µM) : its Bliss excess reads 0.0625
